B1: PTPRD (parent)
chain: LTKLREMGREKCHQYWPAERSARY

variants of: B1; experiment: protein stability index of a GFP-peptide fusion (GPS, HEK-293T) (PSI 1-6); higher = more stable; details: c terminus: a fixed tail appended;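 also: lentivirally expressed fusions sorted by FACS into six bins by GFP to DsRed ratio, PSI derived from sequencing read proportions per bin multiplied by bin number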
The entries below are paired with their reported protein stability index.
Please reply with the number alone, leaving off any unit.

Answered examples (5):
Look up protein stability index: "A22H"
2.21

Quick check: protein stability index of "Y24C" ?
2.65

// returns reported protein stability index for input "Y24A"
2.59

// protein stability index lookup, key: "L1W"
2.43

Param item = "R5C" ; retrieve measured protein stability index.
2.62

---
Look up protein stability index for this variant: "H13T"
2.65

Value lookup for protein stability index; key = "A22D"
2.4
